Target: T1, human GIP receptor (human) (UniProt P48546)
T1 sequence (looked up): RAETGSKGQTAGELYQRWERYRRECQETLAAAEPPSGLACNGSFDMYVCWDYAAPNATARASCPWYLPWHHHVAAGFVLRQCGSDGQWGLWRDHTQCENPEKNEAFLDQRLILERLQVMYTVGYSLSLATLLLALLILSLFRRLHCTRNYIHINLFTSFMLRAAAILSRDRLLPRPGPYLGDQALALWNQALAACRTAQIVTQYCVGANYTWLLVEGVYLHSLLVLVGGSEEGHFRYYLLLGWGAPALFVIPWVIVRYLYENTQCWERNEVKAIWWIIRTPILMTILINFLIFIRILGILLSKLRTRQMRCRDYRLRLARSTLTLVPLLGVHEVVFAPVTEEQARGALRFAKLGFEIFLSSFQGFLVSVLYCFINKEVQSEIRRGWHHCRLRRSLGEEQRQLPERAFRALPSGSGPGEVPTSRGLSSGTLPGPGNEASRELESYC
Assay: cell-based or functional assay
property measured: cAMP Rel EC50, nM (1% HSA)

Solved cases (5 shown):
YXQGTXTSDYSIXLDXKAQXAFIEYLEEGGPSSGAPPPE (not fully specified; synthetic construct; SITE 2: note = 2-Aminoisobutyric Acid; SITE 6: note = alpha-methyl-L-phenylalanine; SITE 13: note = alpha-methyl-leucine; SITE 16: note = L-ornithine; SITE 17: note = Lysine is chemically modified through conjugation of the epsilon-amino group of the Lysine side chain with (2-[2)) [Example 397]; 10.1 nM
YXQGTFTSDXSQXLDKKAQXAFIEYLIAGGPSSGEPPPSGS (non-natural residues; lipidated Lys (γGlu)2-C18 diacid; C-term amide; synthetic construct; SITE 2: note = 2-Aminoisobutyric Acid; SITE 10: note = 3-(4-Pyridyl)-L-alanine; SITE 13: note = alpha-methyl-leucine; SITE 17: note = Lysine is chemically modified through conjugation of the epsilon-amino group of the Lysine side chain with (gamma-Glu)2-CO-(CH2)16-CO2H; SITE 20:) [Example 968]; 11.7 nM
YXQGTFTSDXSXXLDKKAQXAFIEYLLEXGHSSGAPPPSGS (synthetic construct; SITE 2: note = 2-Aminoisobutyric Acid; SITE 10: note = 4-cyano-L-phenylalanine; SITE 12: note = L-ornithine; SITE 13: note = alpha-methyl-leucine; SITE 17: note = Lysine is chemically modified through conjugation of the epsilon-amino group of the Lysine side chain with (2-[2-(2-) [Example 190]; 59.4 nM
YXQGTFTSDXSXXLDKKAQXAFIEXLIEGGPSSGAPPPSGSEE (Aib, 4Pal, Orn, αMeL, Me4Pal, acylated K, C-terminal amide; synthetic construct; SITE 2: note = 2-Aminoisobutyric Acid; SITE 10: note = 3-(4-Pyridyl)-L-alanine; SITE 12: note = L-ornithine; SITE 13: note = alpha-methyl-leucine; SITE 17: note = Lysine is chemically modified through conjugation of the epsilon-amino group of the Lysine side chain with (gamma-Gl)) [Example 958]; 27.1 nM
YXQGTXTSDYSIXLDKKAQXAFIEYLEEGGPSSGAPPPSE (synthetic construct; SITE 2: note = 2-Aminoisobutyric Acid; SITE 6: note = alpha-methyl-2-fluoro-L-phenylalanine; SITE 13: note = alpha-methyl-leucine; SITE 17: note = Lysine is chemically modified through conjugation of the epsilon-amino group of the Lysine side chain with (2-[2-(2-Amino-ethoxy)-et)) [Example 424]; 3.21 nM

Can you give me cAMP Rel EC50, nM (1% HSA) for all of these, one by one?
1. YXQGTFTSDXSQXLDKKAQXAFIEYLIAGGPSSGAPPPSGSEE (non-natural residues; Lys acylated Glu-γGlu-C18 diacid; C-terminal amide; synthetic construct; SITE 2: note = 2-Aminoisobutyric Acid; SITE 10: note = 3-(4-Pyridyl)-L-alanine; SITE 13: note = alpha-methyl-leucine; SITE 17: note = Lysine is chemically modified through conjugation of the epsilon-amino group of the Lysine side chain with (Glu)-(gamma-Glu)-CO-(CH2)16-CO2H; SIT) [Example 1030]
2. YXQGTFTSDXSXXLDXKAQXQFIEXLIEGGPSSGAPPPSGSEE (non-natural residues; (γGlu)2-C18 diacid on Lys; C-terminal amide; synthetic construct; SITE 2: note = 2-Aminoisobutyric Acid; SITE 10: note = 3-(4-Pyridyl)-L-alanine; SITE 12: note = L-ornithine; SITE 13: note = alpha-methyl-leucine; SITE 16: note = L-ornithine; SITE 17: note = Lysine is chemically modified through conjugation of the epsilon-amino group of the Lys) [Example 972]
3. YXQGTFTSDXSXXLDXKAQXAFIEYLIAGGPSSGAPPPSGSE (non-natural residues; Lys acylated C18 diacid; C-terminal amide; synthetic construct; SITE 2: note = 2-Aminoisobutyric Acid; SITE 10: note = 3-(4-Pyridyl)-L-alanine; SITE 12: note = L-ornithine; SITE 13: note = alpha-methyl-leucine; SITE 16: note = L-ornithine; SITE 17: note = Lysine is chemically modified through conjugation of the epsilon-amino group of the Lys) [Example 1011]
4. YXQGTFTSDFSXXLDKKAQXAFIEYLLEAGPSSGEPPPSGT (synthetic construct; SITE 2: note = 2-Aminoisobutyric Acid; SITE 12: note = L-ornithine; SITE 13: note = alpha-methyl-leucine; SITE 17: note = Lysine is chemically modified through conjugation of the epsilon-amino group of the Lysine side chain with (2-[2-(2-Amino-ethoxy)-ethoxy]-acetyl)2-(gamma-Glu)) [Example 156]
5. YXQGTFTSDXSQXLDXKAQXAFIEYLIAGGPSSGAPPPSGSEE (non-natural residues; lipidated Lys; C-terminal amide; synthetic construct; SITE 2: note = 2-Aminoisobutyric Acid; SITE 10: note = 3-(4-Pyridyl)-L-alanine; SITE 13: note = alpha-methyl-leucine; SITE 16: note = L-ornithine; SITE 17: note = Lysine is chemically modified through conjugation of the epsilon-amino group of the Lysine side chain with D-Glutami) [Example 1034]
6. YXQGTFTSDXSQXLDKKAQXAFIEYLIAGGESSGAPPPSGSEE (non-natural residues, C18 diacid-(γGlu)2 acyl on K, C-terminal amide; synthetic construct; SITE 2: note = 2-Aminoisobutyric Acid; SITE 10: note = 3-(4-Pyridyl)-L-alanine; SITE 13: note = alpha-methyl-leucine; SITE 17: note = Lysine is chemically modified through conjugation of the epsilon-amino group of the Lysine side chain with (gamma-Glu)2-CO-(CH2)16-CO2H; SITE 20:) [Example 963]

1: 21 nM; 2: 30.4 nM; 3: 13.5 nM; 4: 25.8 nM; 5: 23 nM; 6: 25.1 nM

Consider the binder YXQGTXTSDXXIXLEXKAQXEFIEXLVEGGPSSGAPPPSGS (synthetic construct; SITE 2: note = 2-Aminoisobutyric Acid; SITE 6: note = alpha-methyl-2-fluoro-L-phenylalanine; SITE 10: note = 3-(4-Pyridyl)-L-alanine; SITE 11: note = alpha-methyl-L-serine; SITE 13: note = alpha-methyl-leucine; SITE 16: note = L-ornithine; SITE 17: note = Lysine is chemically mo) [Example 768] and give its measured cAMP Rel EC50, nM (1% HSA).
2.65 nM
